Source listed as patent US6306860A.

Target: HBV polymerase (Hepatitis B virus genotype D subtype ayw)
Construct: made in house; host or cells: E. coli
Assay: Inhibitory activities against HBV polymerase (reverse transcriptase activity) in vitro
Assay type: biochemical
Conditions: 0.01 μg/ml; read-out: Inhibitory activity of HBV-RT (%)
Excerpt: Experiment 1:Inhibitory Activities Against HBV Polymerase in vitro Recently, the inventors of the present invention have produced a recombinant HBV polymerase that is expressed from E.coli transformant, measured its enzyme activity and filed patent applications threrof [Korean Pat. Appl. Nos. 94-3918 and 96-33998]. The inventors have also established a method of measuring the reverse transcriptase activity of HBV polymerase in vitro. […]
This section presents compounds with their documented inhibition at 0.01 µg/mL values.
Only the number, expressed in %, is required.

Here are 3 compounds together with their reported answers.
CC(C)CNC(=O)c1ccc(C(=O)N2CCN(CCO)CC2)nc1 :: 55
COCCNC(=O)c1ccc(C(=O)N2CCN(CCO)CC2)nc1 :: 57
CC(C)Nc1cccnc1N1CCN(C(=O)c2ccc(C(=O)NC3CC3)cn2)CC1 :: 5

### Prompt Recorded inhibition at 0.01 µg/mL for `CC(C)Nc1cccnc1N1CCN(C(=O)c2ccc(C(=O)NCc3ccncc3)cn2)CC1` with HBV polymerase (Hepatitis B virus genotype D subtype ayw), please?
### Response 39

### Prompt And for `CC(C)(CO)NC(=O)c1ccc(C(=O)N2CCN(c3ncccc3N)CC2)nc1` ?
### Response 38

### Prompt And for `CC(C)CNc1cccnc1N1CCN(C(=O)c2ccc(C(=O)NC(C)(C)CO)cn2)CC1` ?
### Response 63

---

This section presents molecules with their documented inhibition at 0.01 µg/mL values.
target: HBV polymerase (Hepatitis B virus genotype D subtype ayw, UniProt P03156); construct: made in house; host or cells: E. coli; experiment: Inhibitory activities against HBV polymerase (reverse transcriptase activity) in vitro; type: biochemical; conditions: 0.01 μg/ml; read-out: Inhibitory activity of HBV-RT (%)
Sequence (P03156 whole entry): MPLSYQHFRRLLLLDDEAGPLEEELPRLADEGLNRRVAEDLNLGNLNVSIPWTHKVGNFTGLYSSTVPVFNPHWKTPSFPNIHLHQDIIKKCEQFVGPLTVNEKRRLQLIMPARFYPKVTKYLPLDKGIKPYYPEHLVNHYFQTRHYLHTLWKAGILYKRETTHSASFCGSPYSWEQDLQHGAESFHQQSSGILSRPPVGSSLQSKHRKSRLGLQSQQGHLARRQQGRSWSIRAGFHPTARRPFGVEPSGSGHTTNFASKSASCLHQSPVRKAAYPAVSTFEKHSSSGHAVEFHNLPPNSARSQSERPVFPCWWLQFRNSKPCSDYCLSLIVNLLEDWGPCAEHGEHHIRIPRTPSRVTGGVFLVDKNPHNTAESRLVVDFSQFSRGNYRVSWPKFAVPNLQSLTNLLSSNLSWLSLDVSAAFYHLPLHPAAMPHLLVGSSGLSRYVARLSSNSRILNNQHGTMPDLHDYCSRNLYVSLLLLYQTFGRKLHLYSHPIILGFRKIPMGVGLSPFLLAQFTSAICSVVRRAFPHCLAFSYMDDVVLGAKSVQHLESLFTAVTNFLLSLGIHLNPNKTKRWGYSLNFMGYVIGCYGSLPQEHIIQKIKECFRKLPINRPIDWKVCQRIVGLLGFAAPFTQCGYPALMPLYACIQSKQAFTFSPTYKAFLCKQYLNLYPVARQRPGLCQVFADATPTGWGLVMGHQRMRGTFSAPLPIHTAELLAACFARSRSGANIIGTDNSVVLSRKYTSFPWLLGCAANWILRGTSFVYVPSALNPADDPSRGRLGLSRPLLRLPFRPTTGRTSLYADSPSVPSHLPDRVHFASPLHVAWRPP
Only the number, expressed in %, is required.

Here are 8 molecules together with their reported answers.
CC(C)Nc1cccnc1N1CCN(C(=O)c2ccc(C(=O)NC3CCOC3=O)cn2)CC1 (stereo not drawn) :: 55
Nc1cccnc1N1CCN(C(=O)c2ccc(C(=O)NCc3ccccn3)cn2)CC1 :: 22
COC(CNC(=O)c1ccc(C(=O)N2CCN(CCO)CC2)nc1)OC :: 55
COCCN(CCOC)C(=O)c1ccc(C(=O)N2CCN(CCO)CC2)nc1 :: 20
O=C(NCc1ccco1)c1ccc(C(=O)N2CCN(CCO)CC2)nc1 :: 20
CC(C)Nc1cccnc1N1CCN(C(=O)c2ccc(C(=O)NCCCN3CCCC3=O)cn2)CC1 :: 63
CC(C)Nc1cccnc1N1CCN(C(=O)c2ccc(C(=O)Nc3ncccc3O)cn2)CC1 :: 61
COC(CNC(=O)c1ccc(C(=O)N2CCN(c3ncccc3NC(C)C)CC2)nc1)OC :: 57

### Prompt Entry `CC(C)Nc1cccnc1N1CCN(C(=O)c2ccc(C(=O)NCCN3CCOCC3)cn2)CC1` has what inhibition at 0.01 µg/mL?
### Response 49

---

This section presents compounds with their documented inhibition at 0.1 µg/mL values.
target: HIV reverse transcriptase (Human immunodeficiency virus type 1 group M subtype B); construct: purchased Boehringer Mannheim; experiment: In vitro inhibition test against HIV reverse transcriptase; type: biochemical; conditions: 0.1 μg/ml; read-out: Inhibitory activity of HIV-RT (%)
Only the number, expressed in %, is required.

Here are 5 compounds together with their reported answers.
CC(C)Nc1cccnc1N1CCN(C(=O)c2ccc(C(=O)NC3CCSC3=O)cn2)CC1 (stereo not drawn) :: 61
CC(C)Nc1cccnc1N1CCN(C(=O)c2ccc(C(=O)NCCc3c[nH]cn3)cn2)CC1 :: 21
COCC(C)NC(=O)c1ccc(C(=O)N2CCN(c3ncccc3NC(C)C)CC2)nc1 (stereo not drawn) :: 44
Cc1cc(NC(=O)c2ccc(C(=O)N3CCN(c4ncccc4NC(C)C)CC3)nc2)n[nH]1 :: 52
COCCCNC(=O)c1ccc(C(=O)N2CCN(c3ncccc3NC(C)C)CC2)nc1 :: 47

### Prompt Entry `CC(C)Nc1cccnc1N1CCN(C(=O)c2ccc(C(=O)NCCc3cccs3)cn2)CC1` has what inhibition at 0.1 µg/mL?
### Response 54

### Prompt And for `CC(C)Nc1cccnc1N1CCN(C(=O)c2ccc(C(=O)NC3CC3)cn2)CC1` ?
### Response 30

### Prompt And for `CC(C)CNC(=O)c1ccc(C(=O)N2CCN(CCO)CC2)nc1` ?
### Response 50

### Prompt And for `CC(C)Nc1cccnc1N1CCN(C(=O)c2ccc(C(=O)NCCN(C)C)cn2)CC1` ?
### Response 63
